Data provenance is PubChem BioAssay (NCI).

Each entry below carries its recorded TGI.
Tested on: SF-539 CNS
procedureDetails: NCI tumour cell line growth inhibition, 48 h
Where a SMILES comes first, the peptide text is derived from it. The star is where a group is joined. Ethyl(2-NMe3+) = C[N+](C)(C)CC*; Boc = CC(C)(C)OC(=O)*

Consider the worked cases shown below.
| compound | TGI |
| --- | --- |
| COc1ccc(OC2OC(COC(c3ccccc3)(c3ccc(OC)cc3)c3ccc(OC)cc3)C(O)C(O)C2O)cc1 (centres undefined) | 17 µM |
| CCCC/C=C1\CCC(C)(CN(C)C)C1=O (centres undefined) | > 100 µM |
| Cc1cc2sc(C)[n+](CCCOS(=O)(=O)[O-])c2cc1C | > 100 µM |
| CCOC(=O)/C(=C\c1cccs1)P(=O)(OCC)OCC | 45.4 µM |
| O=[N+]([O-])c1cc2c(c([N+](=O)[O-])c1)NCc1ccccc1O2 | > 100 µM |

Reported TGI for COC(=O)CCC1CCC(c2cc(F)ccc2F)(S(=O)(=O)c2ccc(Cl)cc2)CC1 (centres undefined) was > 100 µM

Reported TGI of COc1c(Br)cc(/C=C(\C#N)c2cccnc2)cc1Br : > 100 µM

# TGI of CC(NC(=O)C(Cc1ccc(OCC[N+](C)(C)C)cc1)NC(=O)OC(C)(C)C)C(=O)NC(Cc1ccccc1)C(=O)NCC(N)=O (centres undefined) (Boc-Y(Ethyl(2-NMe3+))AFG-NH2; configuration not given here) = 25.5 µM

compound CC1(C)C/C(=N/O)c2c(nc3ccc4ccccc4c3c2-c2ccc(Cl)cc2)C1 , TGI observed: 36.4 µM

---

System: PC-3 prostate
procedureDetails: NCI tumour cell line growth inhibition, 48 h
Measured TGI values are reported for all entries that follow.
Write the value in µM as a bare number.

| compound | targetDesc | testReadout | quantitativeReadout |
| --- | --- | --- | --- |
| Cc1ccc2c(c1)C(C)Cc1c(Cl)ncnc1N2C (stereo not given) | PC-3 prostate | TGI | 72.1 |

Shifting focus to the compound that follows.
get_value(item= COc1cc(Cl)cc(-c2nn(-c3cccc(NC(=O)Nc4cc(C(F)(F)F)cc(C(F)(F)F)c4)c3)cc2-c2ccncc2)c1 , readout=TGI) returns 1.62

---

Tested on: MDA-MB-435
procedureDetails: NCI tumour cell line growth inhibition, 48 h
Parameter: TGI. Scope: all listed entries.
Write the answer as a number in µM, unit excluded.

| compound | targetDesc | valueUnits | quantitativeReadout |
| --- | --- | --- | --- |
| CNCCNc1c2c(c(NCCNC)c3[nH]ccc13)C(=O)c1ccccc1C2=O | MDA-MB-435 | µM | 1.47 |
| CCN1Cc2c(ccc(F)c2C#N)O[C@@H](C)CNC(=O)c2c(N)nn3ccc1nc23 | MDA-MB-435 | µM | 20.2 |
| Nc1ccc(S(=O)(=O)Nc2ccc(Nc3c4ccccc4nc4ccccc34)cc2)cc1 | MDA-MB-435 | µM | 53 |
| COc1cc2c(cc1OCCCCCOc1ccc(-n3c(C)nc4ccccc4c3=O)cc1)N=C[C@@H]1CCCN1C2=O | MDA-MB-435 | µM | 0.39 |
| Nc1nc(N)c2c(n1)NC(c1ccc(F)cc1)C1CCc3ccccc3C1=N2 (stereo not given) | MDA-MB-435 | µM | 11.6 |

The value of TGI measured for the compound Clc1ccc2nnnn2n1 turned out to be 5.39

# TGI of CCC[CH2][Sn]([CH2]CCC)([CH2]CCC)[O]C(=O)c1ccc(Cl)cc1Cl = 0.335

Entry COc1ccc2c(c1)-c1[nH]c3ccc(OC)cc3c1CC2 ; TGI = 40.2
